The reader will find reported pIC50 values listed item by item below.
# Tested on: MCF-7 (human breast cancer cells)
# ASSAY: MTT inhibition of tumor cell growth, MCF-7
# Assay type: cell-based
# DETAILS: Homo sapiens, MCF7, 48 h, Table 1, 7-hydroxy derivatives of S-3
Give only the number. pIC50 is defined as minus log10 of concentration in molar units.

Example cases with answers are listed next.
>  <COMPOUND>
C=C1C(=O)C23CC[C@H]1CC2[C@@]12CCC[C@@](C)(COC1=O)C2C[C@H]3OS(=O)(=O)Cc1ccccc1 (some centres unmarked) [Compound 1r]

>  <REPORTED>
5.69

$$$$
>  <COMPOUND>
C=C1C(=O)C23CC[C@H]1CC2[C@@]12CCC[C@@](C)(COC1=O)C2C[C@H]3OC(=O)CCCl (some centres unmarked) [Compound 1h]

>  <REPORTED>
5.57

$$$$
>  <COMPOUND>
C=C1C(=O)[C@]23CC[C@H]1CC2[C@@]12CCC[C@@](C)(COC1=O)C2C[C@H]3S(=O)(=O)c1ccccc1[N+](=O)[O-] (some centres unmarked) [Compound 1u]

>  <REPORTED>
5.04

$$$$
>  <COMPOUND>
C=C1C(=O)[C@]23CC[C@H]1CC2[C@@]12CCC[C@@](C)(COC1=O)C2C[C@@H]3S(=O)(=O)c1ccccc1[N+](=O)[O-] (some centres unmarked) [Compound 1v]

>  <REPORTED>
4.95

$$$$
>  <COMPOUND>
C=C1C(=O)C23CC[C@H]1CC2[C@@]12CCC[C@@](C)(COC1=O)C2C[C@H]3OC(=O)c1ccc(C(F)(F)F)cc1 (some centres unmarked) [Compound 1m]

>  <REPORTED>
5.71

$$$$
>  <COMPOUND>
C=C1C(=O)C23CC[C@H]1CC2[C@@]12CCC[C@@](C)(COC1=O)C2C[C@H]3OC(=O)[C@@H](C)Cl (some centres unmarked) [Compound 1i]

>  <REPORTED>
5.59

$$$$

Consider the additional compound presented here.
For C=C1C(=O)[C@]23CC[C@H]1CC2[C@@]12CCC[C@@](C)(COC1=O)C2C[C@H]3OC(=O)CCl (some centres unmarked) [Compound 1c] , what is its reported pIC50?
5.44

---

The reader will find reported IC50 values listed item by item below.
# System: SW-480 (human colon cancer cells)
# ASSAY: MTT inhibition of tumor cell growth, SW-480
# Type: cell-based
# DETAILS: Homo sapiens, SW480, 48 h, Table 1, 7-hydroxy derivatives of S-3, read-out: IC50 SW-480
Value expressed in nM; do not type the unit.

Example cases with answers are listed next.
>  <MOLECULE>
C=C1C(=O)C23CC[C@H]1CC2[C@@]12CCC[C@@](C)(COC1=O)C2C[C@H]3OC(=O)c1ccc(OC)cc1 (stereo partly drawn) [Compound 1l]

>  <ASSAYED_SYSTEM>
SW-480 (human colon cancer cells)

>  <IC50, nM>
2430

$$$$
>  <MOLECULE>
C=C1C(=O)C23CC[C@H]1CC2[C@@]12CCC[C@@](C)(COC1=O)C2C[C@H]3OC(=O)c1ccc(C(F)(F)F)cc1 (stereo partly drawn) [Compound 1m]

>  <ASSAYED_SYSTEM>
SW-480 (human colon cancer cells)

>  <IC50, nM>
2190

$$$$

Consider the additional molecule presented here.
For C=C1C(=O)[C@]23CC[C@H]1CC2[C@@]12CCC[C@@](C)(COC1=O)C2C[C@H]3OC(=O)CBr (stereo partly drawn) [Compound 1d] , what is its reported IC50?
3000
